Cited source for all entries: ChEMBL document CHEMBL1122702

# Organism: Rattus norvegicus
# PROCEDURE DETAILS: Ratio of distribution of the [131I]-labeled compound at 5 min in rat heart over uptake in blood
# Assay type: ADME, organism-based
# APPLIED CONDITIONS: other tissue
MEASURED PARAMETER: Ratio

>>> df
                                    compound  recorded_number
 0  CCN(CC)C(C)Cc1cc(OC)c(I)cc1OC (stereo not given)                5
 1  CNC(C)Cc1cc(OC)c(I)cc1OC (stereo not given)              6.6
 2  COc1cc(CC(C)NCc2ccccc2)c(OC)cc1I (stereo not given)              9.2
 3  COc1cc(CC(C)N(C)C(C)C)c(OC)cc1I (stereo not given)             0.68
 4  COc1cc(CC(C)N(C)C)c(OC)cc1I (stereo not given)                4
 5  COc1cc(CC(C)NN)c(OC)cc1I (stereo not given)              1.9
 6  COc1cc(CC(C)NCCCN(C)C)c(OC)cc1I (stereo not given)               17
 7  COc1cc(CC(C)N(C)Cc2ccccc2)c(OC)cc1I (stereo not given)              9.2
 8  CCCCCCNC(C)Cc1cc(OC)c(I)cc1OC (stereo not given)               13
 9  CCCCCCCCCCCCNC(C)Cc1cc(OC)c(I)cc1OC (stereo not given)              1.2
10  COc1cc(CC(C)NCC2CC2)c(OC)cc1I (stereo not given)              7.6
11  COc1cc(CC(C)NO)c(OC)cc1I (stereo not given)              3.6
12  COc1cc(CC(C)NCC#N)c(OC)cc1I (stereo not given)              4.7
13  COc1cc(CC(C)N)c(OC)cc1I (stereo not given)               12
14  COc1cc(CC(C)NC(C)C)c(OC)cc1I (stereo not given)              4.8

###

Reported Dose is given for each of the following compounds.
# Species on record: Rattus norvegicus
# PROCEDURE DETAILS: The distribution of the 131 I-labeled compound at 30 min was evaluated in rat heart as Percent of injected dose per gram in the organ
# Type: ADME, organism-based
# APPLIED CONDITIONS: in vivo, 0.5 h
MEASURED PARAMETER: Dose (%)

In [3]: df
Out[3]:
                                    compound  units_label  recorded_number
 0  COc1cc(CC(C)NCc2ccccc2)c(OC)cc1I (stereo not drawn)            %              0.5
 1  CCCCCCNC(C)Cc1cc(OC)c(I)cc1OC (stereo not drawn)            %             0.36
 2  COc1cc(CC(C)NCC2CC2)c(OC)cc1I (stereo not drawn)            %              0.3
 3  COc1cc(CC(C)NCC#N)c(OC)cc1I (stereo not drawn)            %             0.39
 4  COc1cc(CC(C)NC(C)C)c(OC)cc1I (stereo not drawn)            %             0.44
 5  COc1cc(CC(C)N(C)C(C)C)c(OC)cc1I (stereo not drawn)            %             0.19
 6  CCN(CC)C(C)Cc1cc(OC)c(I)cc1OC (stereo not drawn)            %             0.14
 7  COc1cc(CC(C)N)c(OC)cc1I (stereo not drawn)            %             0.29
 8  COc1cc(CC(C)NN)c(OC)cc1I (stereo not drawn)            %              1.2
 9  COc1cc(CC(C)N(C)Cc2ccccc2)c(OC)cc1I (stereo not drawn)            %             0.19
10  COc1cc(CC(C)NCCCN(C)C)c(OC)cc1I (stereo not drawn)            %              1.5
11  CNC(C)Cc1cc(OC)c(I)cc1OC (stereo not drawn)            %             0.53
12  COc1cc(CC(C)N(C)C)c(OC)cc1I (stereo not drawn)            %             0.26

###

# Species: Rattus norvegicus
# PROCEDURE DETAILS: The distribution of the 131 I-labeled compound at 5 min was evaluated in rat liver as Percent of injected dose per gram in the organ
# Assay type: ADME, organism-based
# APPLIED CONDITIONS: in vivo
MEASURED PARAMETER: Dose

>>> df
                                   compound  result
0  COc1cc(CC(C)NCC2CC2)c(OC)cc1I (stereo unspecified)   0.55%
1  CCN(CC)C(C)Cc1cc(OC)c(I)cc1OC (stereo unspecified)   0.46%
2  COc1cc(CC(C)NC(C)C)c(OC)cc1I (stereo unspecified)    1.1%
3  CCCCCCNC(C)Cc1cc(OC)c(I)cc1OC (stereo unspecified)   0.58%
4  COc1cc(CC(C)N(C)C)c(OC)cc1I (stereo unspecified)    1.1%
5  CNC(C)Cc1cc(OC)c(I)cc1OC (stereo unspecified)   0.76%

###

Reported Dose is given for each of the following molecules.
# Species on record: Rattus norvegicus
# PROCEDURE DETAILS: The distribution of the 131 I-labeled compound at 5 min was evaluated in rat liver as Percent of injected dose per gram in the organ
# Assay type: ADME, organism-based
# APPLIED CONDITIONS: in vivo
MEASURED PARAMETER: Dose (%)

In [3]: df
Out[3]:
                                   molecule  recorded_number
0  COc1cc(CC(C)NCCCN(C)C)c(OC)cc1I (configuration not stated)             0.66
1  COc1cc(CC(C)NCC#N)c(OC)cc1I (configuration not stated)             0.53
2  COc1cc(CC(C)NN)c(OC)cc1I (configuration not stated)              1.3
3  COc1cc(CC(C)NCc2ccccc2)c(OC)cc1I (configuration not stated)             0.72
4  COc1cc(CC(C)N)c(OC)cc1I (configuration not stated)             0.83
5  COc1cc(CC(C)N(C)C(C)C)c(OC)cc1I (configuration not stated)             0.76
6  COc1cc(CC(C)N(C)Cc2ccccc2)c(OC)cc1I (configuration not stated)              0.8

###

# Species: Rattus norvegicus
# PROCEDURE DETAILS: The distribution of the 131 I-labeled compound at 5 min was evaluated in rat blood as Percent of injected dose per gram in the organ
# Assay type: ADME, organism-based
# APPLIED CONDITIONS: in vivo
Reported Dose is given for each of the following compounds.
MEASURED PARAMETER: Dose (%)

>>> df
                                    compound  recorded_number
 0  CCCCCCNC(C)Cc1cc(OC)c(I)cc1OC (stereo not drawn)             0.16
 1  COc1cc(CC(C)NN)c(OC)cc1I (stereo not drawn)             0.36
 2  CCN(CC)C(C)Cc1cc(OC)c(I)cc1OC (stereo not drawn)             0.07
 3  COc1cc(CC(C)NC(C)C)c(OC)cc1I (stereo not drawn)             0.25
 4  CNC(C)Cc1cc(OC)c(I)cc1OC (stereo not drawn)             0.14
 5  COc1cc(CC(C)NCc2ccccc2)c(OC)cc1I (stereo not drawn)             0.12
 6  COc1cc(CC(C)NCC2CC2)c(OC)cc1I (stereo not drawn)             0.12
 7  COc1cc(CC(C)N(C)C)c(OC)cc1I (stereo not drawn)              0.2
 8  COc1cc(CC(C)N(C)Cc2ccccc2)c(OC)cc1I (stereo not drawn)             0.12
 9  COc1cc(CC(C)NCCCN(C)C)c(OC)cc1I (stereo not drawn)             0.11
10  COc1cc(CC(C)N(C)C(C)C)c(OC)cc1I (stereo not drawn)              0.5
11  COc1cc(CC(C)N)c(OC)cc1I (stereo not drawn)             0.07
12  COc1cc(CC(C)NCC#N)c(OC)cc1I (stereo not drawn)             0.11
